B1: HDV Ribozyme (parent)
chain: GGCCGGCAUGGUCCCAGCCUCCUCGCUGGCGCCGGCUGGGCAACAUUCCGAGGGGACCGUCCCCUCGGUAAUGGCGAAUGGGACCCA

Variants of: B1
Assay: self-cleavage, relative activity (ratio to wild type); higher = more cleavage; co-transcriptional
MEASURED_ENDPOINT: self-cleavage
Please respond with just the number, no unit label.

Bench note: what self-cleavage did G25C A43C show?
0.0554

Bench note: what self-cleavage did C36G G55C show?
0.0314

Bench note: what self-cleavage did C75G A87G show?
0.108

Bench note: what self-cleavage did C19U G74A show?
0.0961

Bench note: what self-cleavage did C21A G76C show?
0.0997

Bench note: what self-cleavage did C7U C22A show?
0.261

Bench note: what self-cleavage did C33A C85U show?
0.277
